targetEntity: human factor Xa (Homo sapiens, UniProt P00742)
Sequence (P00742 235-488 limits assumed): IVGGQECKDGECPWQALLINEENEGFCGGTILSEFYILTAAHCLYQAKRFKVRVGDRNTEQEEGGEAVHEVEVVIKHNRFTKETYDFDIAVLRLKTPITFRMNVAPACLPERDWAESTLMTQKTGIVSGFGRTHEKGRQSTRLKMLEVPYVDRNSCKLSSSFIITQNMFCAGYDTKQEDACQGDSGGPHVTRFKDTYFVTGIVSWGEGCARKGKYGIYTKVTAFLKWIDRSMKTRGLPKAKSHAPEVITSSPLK
Sequence (P00742 41-179 partner limits assumed): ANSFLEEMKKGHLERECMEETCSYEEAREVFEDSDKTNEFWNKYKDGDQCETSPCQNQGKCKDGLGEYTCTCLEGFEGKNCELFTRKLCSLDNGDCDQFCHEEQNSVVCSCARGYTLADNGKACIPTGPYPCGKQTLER
experimentalDetails: Factor Xa assay (chromogenic, substrate S-2765);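 further: purified enzyme preincubated with inhibitor for 10 min before substrate addition, final reaction volume 100 µl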
Format: biochemical
reportedConditions: read-out: Ki(FXa)
measuredEndpoint: Ki (nM)
Please state the figure in nM; there is no need to write the unit.

Recorded Ki for CNC(=O)CN1CCC(NC(=O)c2cc3ccccc3n2Cc2cc(-c3ccc(Cl)s3)on2)CC1 , please?
580

Would you kindly repeat that for CC(C)N1CCC(NC(=O)c2cc3c(Cl)ccc(Cl)c3n2Cc2cc(-c3ccc(Cl)s3)on2)CC1 ?
24

Would you kindly repeat that for CC(C)OC(=O)c1ccc2c(c1)cc(C(=O)NC1CCN(C(C)C)CC1)n2Cc1cc(-c2ccc(Cl)s2)on1 ?
42

Would you kindly repeat that for O=C(Cn1c(C(=O)N2CCC(N3CCCC3)CC2)cc2ccccc21)Nc1ccc(Cl)cc1 ?
754

These measurements were taken from patent US20090069565A1.
